# maps each entry to its relative viability
tested on: VA-ES-BJ; test: relative viability vs DMSO control (72 h) (fraction); higher = more viable cells; details: 0.3704 µM
Lab note: jot the number down without any unit.

Examples with answers:
CC(C)NC(=O)C1CCC(n2c(NC(=O)c3ccc(F)cc3)nc3ccc(CN4CCC(C(C)(C)O)CC4)cc32)CC1 (stereo not drawn)	0.926
Cc1cc(C)c(/C=C2\C(=O)Nc3ccccc32)[nH]1	0.901
C[C@]1(O)C[C@@H](c2nc(-c3ccc4ccc(-c5ccccc5)nc4c3)c3c(N)nccn32)C1	0.966

*Q* Give the value of relative viability reported for the following: `Cc1nc(NC(=O)N2CCC[C@H]2C(N)=O)sc1-c1ccnc(C(C)(C)C(F)(F)F)c1`
*A* 0.833

*Q* Give recorded relative viability. `C=CC(=O)N1CCC[C@@H](n2nc(-c3ccc(Oc4ccccc4)cc3)c3c(N)ncnc32)C1`
*A* 1.07

*Q* Return relative viability (reported value) for this molecule: `COc1c(OCCCN2CCOCC2)ccc2c1N=C(NC(=O)c1cnc(N)nc1)N1CCN=C21`
*A* 0.396

*Q* Give reported relative viability value for `Nc1cc(C(F)(F)F)c(-c2cc(N3CCOCC3)nc(N3CCOCC3)n2)cn1`
*A* 0.663

*Q* Give a short answer stating reported relative viability for `CC(=O)Nc1cccc(-n2c(=O)n(C3CC3)c(=O)c3c(Nc4ccc(I)cc4F)n(C)c(=O)c(C)c32)c1` .
*A* 0.656
